Target: GST-Bcl-XL (Homo sapiens, UniProt Q07817)
Sequence (Q07817 whole entry): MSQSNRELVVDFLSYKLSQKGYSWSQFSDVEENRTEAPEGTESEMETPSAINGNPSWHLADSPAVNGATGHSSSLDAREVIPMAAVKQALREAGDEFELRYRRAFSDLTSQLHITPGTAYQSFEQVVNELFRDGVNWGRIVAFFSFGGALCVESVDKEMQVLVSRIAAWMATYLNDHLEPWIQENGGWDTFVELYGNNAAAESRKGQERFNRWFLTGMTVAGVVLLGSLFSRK
Assay: TR-FRET binding assay, GST-Bcl-XL with F-Bak peptide probe
Settings: TR-FRET Binding Affinity, GST-Bcl-XL, F-Bak peptide probe
Protocol: Tb-anti-GST antibody was purchased from Invitrogen (Catalog No. PV4216). […] The samples were then mixed on a shaker for 1 minute and incubated for an additional 3 hours at room temperature. […] Fluorescence was measured on the ENVISION plate reader (Perkin Elmer) using a 340/35 nm excitation filter and 520/525 (F-Bak peptide) and 495/510 nm (Tb-labeled […] antibody) emission filters. […]
Assignment: determine reported log10 of Ki for the given molecules.
The common logarithm of Ki in nM is what is listed.

Report log10 of Ki for CN(C)CCCNc1ccc(S(=O)(=O)NC(=O)c2ccc(N3CCN(CC4=C(c5ccc(Cl)cc5)CC(C)(C)CC4)CC3)cc2Oc2ccc3[nH]ccc3c2)cc1S(=O)(=O)C(F)(F)F tested on GST-Bcl-XL (Homo sapiens, UniProt Q07817).
0.58

Form entry - test system: GST-Bcl-XL (Homo sapiens, UniProt Q07817); read-out: log10 of Ki; molecule: CC1(C)CCC(CN2CCN(c3ccc(C(=O)NS(=O)(=O)c4ccc(OCCCS(C)(=O)=O)c([N+](=O)[O-])c4)c(Oc4cccc5[nH]ccc45)c3)CC2)=C(c2ccc(Cl)cc2)C1
1.90

Return log10 of Ki measured with GST-Bcl-XL (Homo sapiens, UniProt Q07817) given this molecule: CC(c1ccccc1-c1ccc(Cl)cc1)N1CCN(c2ccc(C(=O)NS(=O)(=O)c3ccc(NN4CCN(C)CC4)c([N+](=O)[O-])c3)c(Oc3cccc4[nH]ccc34)c2)CC1 (stereo not shown)
1.65

Can you look up log10 of Ki on GST-Bcl-XL (Homo sapiens, UniProt Q07817) for CN(C)CC(=O)N1CCO[C@@H](COc2ncc(S(=O)(=O)NC(=O)c3ccc(N4CCN(CC5=C(c6ccc(Cl)cc6)CC(C)(C)CC5)CC4)cc3Oc3cccc4[nH]ncc34)cc2Cl)C1 ?
0.63

Which log10 of Ki is reported with GST-Bcl-XL (Homo sapiens, UniProt Q07817) for this entry: CN1CCC(Nc2ccc(S(=O)(=O)NC(=O)c3ccc(N4CCN(CC5=C(c6ccc(Cl)cc6)CC(C)(C)CC5)CC4)cc3Oc3ccc4[nH]ncc4c3)cc2[N+](=O)[O-])CC1 ?
2.28

Lab note: need log10 of Ki with GST-Bcl-XL (Homo sapiens, UniProt Q07817) for entry CC1(C)CCC(CN2CCN(c3ccc(C(=O)NS(=O)(=O)c4cnc(O[C@@H]5CCN(C(CF)CF)C5)c(Cl)c4)c(Oc4cccc5[nH]ncc45)c3)CC2)=C(c2ccc(Cl)cc2)C1 , please look it up.
1.88

Notebook entry, GST-Bcl-XL (Homo sapiens, UniProt Q07817) assay: log10 of Ki of CC1(C)CCC(CN2CCN(c3ccc(C(=O)NS(=O)(=O)c4ccc(OCC#CCN5CCOCC5)c([N+](=O)[O-])c4)c(Oc4ccc5[nH]ccc5c4)c3)CC2)=C(c2ccc(Cl)cc2)C1 = ?
2.06

Kindly state the measured log10 of Ki obtained for CN1CCC(Nc2ccc(S(=O)(=O)NC(=O)c3ccc(N4CCN(CC5=C(c6ccc(Cl)cc6)CC(C)(C)CC5)C(CO)C4)cc3Oc3ccc4[nH]ccc4c3)cc2[N+](=O)[O-])CC1 (stereo not shown) with GST-Bcl-XL (Homo sapiens, UniProt Q07817).
1.99
